Parameter IC50: see the listing below.
Target: PDE4B (human recombinant) (Homo sapiens, UniProt Q07343)
Construct: made in house
Sequence (Q07343 1-564 isoform Q07343-2): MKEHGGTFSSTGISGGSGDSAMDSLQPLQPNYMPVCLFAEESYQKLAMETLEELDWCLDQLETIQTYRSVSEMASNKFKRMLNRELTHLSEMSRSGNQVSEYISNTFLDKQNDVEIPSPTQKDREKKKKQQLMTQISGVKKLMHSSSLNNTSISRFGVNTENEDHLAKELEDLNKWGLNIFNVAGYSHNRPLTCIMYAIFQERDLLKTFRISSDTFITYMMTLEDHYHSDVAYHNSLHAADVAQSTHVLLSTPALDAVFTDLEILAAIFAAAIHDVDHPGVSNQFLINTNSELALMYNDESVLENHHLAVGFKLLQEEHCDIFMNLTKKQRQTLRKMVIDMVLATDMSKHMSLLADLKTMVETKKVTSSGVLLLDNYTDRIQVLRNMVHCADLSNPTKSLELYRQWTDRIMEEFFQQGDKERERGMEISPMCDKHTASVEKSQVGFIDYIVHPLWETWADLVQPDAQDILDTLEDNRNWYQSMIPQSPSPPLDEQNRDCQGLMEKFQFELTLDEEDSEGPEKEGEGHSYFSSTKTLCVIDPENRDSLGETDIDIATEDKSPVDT
Assay: PDE4B inhibition, fluorescence polarisation (FP) and/or SPA assay
Format: biochemical
Conditions: n=1 or average of 2 or more readings, accuracy ±about 0.5 log unit, read-out: PDE4B pIC50 (generally in FP assay) (±about 0.5) (converted)
Where a name gives a salt, the structure may show the parent alone.

The following compounds have reported results that may help.
Q: Dear colleague, I am looking for the recorded IC50 of the following compound: CCc1nc2c(cnn2CC)c(NC2CCOCC2)c1CNC(=O)c1ccc(Cc2ccc(C(=O)NCc3c(CC)nc4c(cnn4CC)c3NC3CCOCC3)cc2)cc1
Result: 0.0158 to 0.1 nM

Q: Dear colleague, I am looking for the recorded IC50 of the following compound: CCc1nc2c(cnn2CC)c(NC2CCN(C(N)=O)CC2)c1CNC(=O)COc1ccccc1C(=O)NCc1c(CC)nc2c(cnn2CC)c1NC1CCN(C(N)=O)CC1 [Example 16, trifluoroacetate]
Result: 0.0158 to 0.1 nM

# input for lookup
Q: Dear colleague, I am looking for the recorded IC50 of the following compound: CCc1nc2c(cnn2CC)c(NC2CCOCC2)c1CNC(=O)c1ccc(Oc2ccc(C(=O)NCc3c(CC)nc4c(cnn4CC)c3NC3CCOCC3)cc2)cc1
Result: 0.126 to 1 nM
